Each recorded value in this set is attributed to paper PMC5575937.

Target: T1, ETV6RAE (Mus musculus (murine), UniProt P97360 329-446, C334S;H432R;S435A;Q436E)
T1 sequence: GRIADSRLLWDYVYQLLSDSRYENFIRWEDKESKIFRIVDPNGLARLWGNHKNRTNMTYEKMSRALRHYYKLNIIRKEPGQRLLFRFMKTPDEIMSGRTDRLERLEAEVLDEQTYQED
Assay: EMSA
Measurement type: pKd
Give bare numbers, as −log10 of the molar value.

Quick one: pKd of 23-bp ETS consensus duplex (dsDNA) DNA 1: CGGCCAAGCCGGAAGTGAGTGCC DNA 2: GGCACTCACTTCCGGCTTGGCCG ?
7.05
